molecular target: UniProt:P04818; test: In vitro thymidylate synthase enzyme assay; assay type: biochemical; details: spectrophotometric, 340 nm, 30 °C, pH 7.4; read-out: IC50 thymidylate synthase
Sequence (P04818 whole entry): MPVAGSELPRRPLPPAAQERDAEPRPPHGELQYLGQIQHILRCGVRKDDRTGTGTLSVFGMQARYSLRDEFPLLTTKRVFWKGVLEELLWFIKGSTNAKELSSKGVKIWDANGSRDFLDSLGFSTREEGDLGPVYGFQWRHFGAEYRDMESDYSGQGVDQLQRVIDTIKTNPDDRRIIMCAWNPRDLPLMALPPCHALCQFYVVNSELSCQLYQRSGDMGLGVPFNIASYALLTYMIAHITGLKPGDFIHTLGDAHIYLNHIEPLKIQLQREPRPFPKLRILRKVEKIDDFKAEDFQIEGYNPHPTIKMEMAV
MEASURED PARAMETER: pIC50
A value of pIC50 is the negative decimal logarithm of a concentration given in moles per litre.

What does the record list as pIC50 for c1ccc(-c2nnc(SCc3cn(-c4ccccc4)nn3)o2)cc1 ?
5.60

Consider the additional compound presented here.
What does the record list as pIC50 for COC(=O)c1ccccc1-n1cc(CSc2nnc(-c3ccccc3)o2)nn1 ?
5.36

----------
tested on: HCT-116 cells; assay: MTT cytotoxicity assay, HCT-116; format: cell-based, human; settings: Homo sapiens, HCT-116, 72 h, colorectal cancer HCT-116, MTT, 72 h
IC50 values, listed per item
Kindly answer with a numeric value in µM, unit omitted.

What does the record list as IC50 for c1ccc(-c2nnc(SCc3cn(-c4ccccc4)nn3)o2)cc1 ?
14.8

What does the record list as IC50 for O=c1[nH]cc(F)c(=O)[nH]1 [Compound 5-FU, 5-fluorouracil, reference compound] ?
32.7

Consider the additional molecule presented here.
What does the record list as IC50 for Clc1ccc(-n2cc(CSc3nnc(-c4ccccc4)o3)nn2)cc1 ?
36.7

----------
MEASURED PARAMETER: melting point

What does the record list as melting point for Clc1ccc(-n2cc(CSc3nnc(-c4ccccc4)o3)nn2)cc1 ?
200 to 202 °C

What does the record list as melting point for Brc1cccc(-n2cc(CSc3nnc(-c4ccccc4)o3)nn2)c1 ?
146 to 148 °C

What does the record list as melting point for COC(=O)c1ccccc1-n1cc(CSc2nnc(-c3ccccc3)o2)nn1 ?
119 to 120 °C

What does the record list as melting point for O=[N+]([O-])c1ccc(-n2cc(CSc3nnc(-c4ccccc4)o3)nn2)cc1 ?
202 to 204 °C

What does the record list as melting point for Clc1ccccc1-n1cc(CSc2nnc(-c3ccccc3)o2)nn1 ?
111 to 112 °C

Consider the additional molecule presented here.
What does the record list as melting point for O=C(O)c1ccccc1-n1cc(CSc2nnc(-c3ccccc3)o2)nn1 ?
119 to 120 °C

----------
system: HCT-116 cells; assay: MTT cytotoxicity assay, HCT-116; format: cell-based, human; conditions: Homo sapiens, HCT-116, 72 h, colorectal cancer HCT-116, MTT, 72 h
IC50 values, listed per item
Kindly answer with a numeric value in µM, unit omitted.

What does the record list as IC50 for O=C(O)c1ccccc1-n1cc(CSc2nnc(-c3ccccc3)o2)nn1 ?
46.8

What does the record list as IC50 for COC(=O)c1ccccc1-n1cc(CSc2nnc(-c3ccccc3)o2)nn1 ?
17.3

What does the record list as IC50 for Cc1ccccc1-n1cc(CSc2nnc(-c3ccccc3)o2)nn1 ?
34.3

What does the record list as IC50 for Brc1cccc(-n2cc(CSc3nnc(-c4ccccc4)o3)nn2)c1 ?
32.7

Further cases:
What does the record list as IC50 for Cc1ccc(-n2cc(CSc3nnc(-c4ccccc4)o3)nn2)cc1 ?
89.2

----------
IC50 values, listed per item
system: MCF-7 cells; test: MTT cytotoxicity assay, MCF-7; type: cell-based, human; conditions: Homo sapiens, MCF7; breast cancer MCF-7, MTT, 72 h
Kindly answer with a numeric value in µM, unit omitted.

What does the record list as IC50 for O=c1[nH]cc(F)c(=O)[nH]1 [Compound 5-FU, 5-fluorouracil, reference compound] ?
24.7

What does the record list as IC50 for O=C(O)c1ccccc1-n1cc(CSc2nnc(-c3ccccc3)o2)nn1 [Compound 14] ?
40.6

What does the record list as IC50 for Clc1ccccc1-n1cc(CSc2nnc(-c3ccccc3)o2)nn1 [Compound 8] ?
73.3

Further cases:
What does the record list as IC50 for Brc1cccc(-n2cc(CSc3nnc(-c4ccccc4)o3)nn2)c1 [Compound 10] ?
25.9

What does the record list as IC50 for COC(=O)c1ccccc1-n1cc(CSc2nnc(-c3ccccc3)o2)nn1 [Compound 13] ?
1.26
